target: HPK1 (Homo sapiens, UniProt Q92918); construct: A HiBiT tag was introduced by CRISPR on the N terminus of HPK1 in Jurkat cells; host or cells: Jurkat cells (ATCC TIB-152), monoclonal line with CRISPR knock-in of HiBiT at the endogenous HPK1 locus; assay: HPK1 Cellular HiBit Degradation Assay; type: cell-based; conditions: HiBiT HPK1 Jurkat cells, 24 hrs; concentration at which 50% of HPK1 was remaining; read-out: DC50 Category
Sequence (Q92918 whole entry): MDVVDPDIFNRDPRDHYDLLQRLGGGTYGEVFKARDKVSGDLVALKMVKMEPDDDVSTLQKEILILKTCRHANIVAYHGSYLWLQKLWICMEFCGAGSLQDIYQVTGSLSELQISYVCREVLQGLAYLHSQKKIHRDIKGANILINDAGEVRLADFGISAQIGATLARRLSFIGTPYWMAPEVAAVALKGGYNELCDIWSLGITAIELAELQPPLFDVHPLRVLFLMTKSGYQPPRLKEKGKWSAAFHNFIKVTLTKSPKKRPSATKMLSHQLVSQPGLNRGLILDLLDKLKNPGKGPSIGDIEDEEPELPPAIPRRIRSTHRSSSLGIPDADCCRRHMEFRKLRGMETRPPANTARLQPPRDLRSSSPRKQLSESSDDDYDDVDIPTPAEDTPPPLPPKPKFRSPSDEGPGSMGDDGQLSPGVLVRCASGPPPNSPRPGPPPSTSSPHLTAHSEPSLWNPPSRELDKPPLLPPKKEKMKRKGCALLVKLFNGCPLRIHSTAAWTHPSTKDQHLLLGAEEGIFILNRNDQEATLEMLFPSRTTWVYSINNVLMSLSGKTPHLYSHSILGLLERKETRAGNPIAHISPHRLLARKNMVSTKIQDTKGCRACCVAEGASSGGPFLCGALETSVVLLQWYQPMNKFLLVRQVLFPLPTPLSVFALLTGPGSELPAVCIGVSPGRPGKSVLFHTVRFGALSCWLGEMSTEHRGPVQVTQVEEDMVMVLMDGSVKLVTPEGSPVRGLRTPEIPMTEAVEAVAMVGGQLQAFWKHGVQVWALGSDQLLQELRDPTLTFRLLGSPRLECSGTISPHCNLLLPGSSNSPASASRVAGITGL
# DC50 annotations
property measured: DC50

>>> result_value("CC(C)n1cnc2cc(-c3ccc4c(c3)N([C@H]3C[C@@H](N5CCCCC5)C3)C(=O)C43CCN(C(=O)C4(C)CCN(C(=O)C5CCN(c6ccc(C7CCC(=O)NC7=O)cc6F)CC5)CC4)CC3)nc(NC3CC3)c21 (mixture of isomers)")
"< 100 nM"
>>> result_value("CC(C)n1cnc2cc(-c3ccc4c(c3)N([C@H]3C[C@@H](N5CCCCC5)C3)C(=O)C43CCN(C(=O)CN4CCC(OCC#Cc5cccc6c5n(C)c(=O)n6C5CCC(=O)NC5=O)CC4)CC3)nc(NC3CC3)c21 (mixture of isomers)")
"< 100 nM"

---

Target: HPK1 (Homo sapiens)
Construct: A HiBiT tag was introduced by CRISPR on the N terminus of HPK1 in Jurkat cells; host or cells: Jurkat cells (ATCC TIB-152), monoclonal line with CRISPR knock-in of HiBiT at the endogenous HPK1 locus
Assay: HPK1 Cellular HiBit Degradation Assay
Assay type: cell-based
Settings: HiBiT HPK1 Jurkat cells, 24 hrs; concentration at which 50% of HPK1 was remaining; read-out: DC50 Category
Experimental: HPK1 Cellular HiBit Degradation Assay A HiBiT tag was introduced by CRISPR on the N terminus of HPK1 in Jurkat cells (ATCC® TIB-152) to allow quantitation of HPK1 protein levels in a monoclonal human cell line. […] Cells were incubated for 10 min at room temperature and luminescence was read on an EnVision plate reader (Perkin Elmer, 0.1 sec per well). […] Percent HPK1 remaining per sample was calculated as follows: […]
property measured: DC50

>>> result_value("CC(C)n1cnc2cc(-c3ccc4c(c3)N([C@H]3C[C@@H](N5CCCCC5)C3)C(=O)C43CCN(C(=O)C4(C)CCN(C(=O)[C@H]5CC[C@H](Nc6ccc(C7CCC(=O)NC7=O)cc6)CC5)CC4)CC3)nc(NC3CC3)c21 (mixture of isomers) [Example 191]")
"< 100 nM"
>>> result_value("CC(C)n1cnc2cc(-c3ccc4c(c3)N([C@H]3C[C@@H](N5CCCCC5)C3)C(=O)C43CCN(C(=O)C4CCN(C(=O)[C@H]5CC[C@H](Cn6ncc7cc(C8CCC(=O)NC8=O)ccc76)CC5)CC4)CC3)nc(Nc3ccccc3F)c21 (mixture of isomers) [Example 64]")
"< 100 nM"
>>> result_value("CC(C)n1cnc2cc(-c3ccc4c(c3)N([C@H]3C[C@@H](N5CCCCC5)C3)C(=O)C43CCN(C(=O)C4CCN(C(=O)C5CCN(c6ccc(C7CCC(=O)NC7=O)cn6)CC5)CC4)CC3)nc(Nc3ccccc3F)c21 (mixture of isomers) [Example 74]")
"< 100 nM"
>>> result_value("CC(C)n1cnc2cc(-c3ccc4c(c3)N([C@H]3C[C@@H](N5CCCCC5)C3)C(=O)C43CCN(C(=O)C4(C)CCN(C(=O)C5CCN(c6ccc7c(c6)C(=O)N(C6CCC(=O)NC6=O)C7=O)CC5)CC4)CC3)nc(NC3CC3)c21 (some centres unmarked) [Example 121]")
"500 to 1000 nM"
>>> result_value("CC(C)n1cnc2cc(-c3ccc4c(c3)N([C@H]3C[C@@H](N5CCCCC5)C3)C(=O)C43CCN(C(=O)C4(C)CCN(C(=O)CN5CCC(c6ccc(C7CCC(=O)NC7=O)cn6)CC5)CC4)CC3)nc(NC3CC3)c21 (mixture of isomers) [Example 224]")
"100 to 500 nM"
>>> result_value("CC(C)n1cnc2cc(-c3ccc4c(c3)N([C@H]3C[C@@H](N5CCCCC5)C3)C(=O)C43CCN(C(=O)[C@H]4CC[C@H](C(=O)N5CCC(Oc6ccc(C7CCC(=O)NC7=O)cn6)CC5)CC4)CC3)nc(Nc3ccccc3F)c21 (mixture of isomers) [Example 28]")
"< 100 nM"
>>> result_value("CC(C)n1cnc2cc(-c3ccc4c(c3)N([C@H]3C[C@@H](N5CCCCC5)C3)C(=O)C43CCN(C(=O)[C@H]4CC[C@@H](C(=O)N5CCC(Nc6ccc(C7CCC(=O)NC7=O)cn6)CC5)CC4)CC3)nc(Nc3ccccc3F)c21 (mixture of isomers) [Example 30]")
"< 100 nM"
>>> result_value("CC(C)n1cnc2cc(-c3ccc4c(c3)N([C@H]3C[C@@H](N5CCCCC5)C3)C(=O)C43CCN(C(=O)c4cccc(C5CCN(C(=O)C6CCN(c7ccc(C8CCC(=O)NC8=O)cn7)CC6)CC5)c4)CC3)nc(NC3CC3)c21 (mixture of isomers) [Example 301]")
"100 to 500 nM"
>>> result_value("Cc1cc(F)c(Nc2nc(-c3ccc4c(c3)N([C@H]3C[C@@H](N5CCCCC5)C3)C(=O)C43CCN(C(=O)CC4CCN(C(=O)C5CCN(C(=O)CNc6cccc7c6C(=O)N(C6CCC(=O)NC6=O)C7=O)CC5)CC4)CC3)cc3ncn(C(C)C)c23)cc1C(=O)NC(C)C (mixture of isomers) [Example 99]")
"500 to 1000 nM"
>>> result_value("CC(C)n1cnc2cc(-c3ccc4c(c3)N([C@H]3C[C@@H](N5CCCCC5)C3)C(=O)C43CCN(C(=O)C4[C@@H]5C[C@H]4CN(C(=O)[C@H]4CC[C@H](Oc6ccc(C7CCC(=O)NC7=O)cc6)CC4)C5)CC3)nc(NC3CC3)c21 (some centres unmarked) [Example 238]")
"< 100 nM"
>>> result_value("CC(C)n1cnc2cc(-c3ccc4c(c3)N([C@H]3C[C@@H](N5CCCCC5)C3)C(=O)C43CCN(C(=O)[C@H]4CC[C@@H](C(=O)N5CCC(Nc6ccc(C7CCC(=O)NC7=O)cn6)CC5)CC4)CC3)nc(NC3CC3)c21 (mixture of isomers) [Example 29]")
"< 100 nM"
